Below: a set of entries, each annotated with reported ELISA score.
Target Desc: T1, human neonatal Fc receptor (hFcRn) (human, UniProt P55899 24-290; P61769 21-119)
T1 construct: Biotinylated in the ELISA, Octet and yeast assays; also called human FcRn; huFcRn
T1 sequence (P55899 24-290 limits assumed, chain 1 of 2): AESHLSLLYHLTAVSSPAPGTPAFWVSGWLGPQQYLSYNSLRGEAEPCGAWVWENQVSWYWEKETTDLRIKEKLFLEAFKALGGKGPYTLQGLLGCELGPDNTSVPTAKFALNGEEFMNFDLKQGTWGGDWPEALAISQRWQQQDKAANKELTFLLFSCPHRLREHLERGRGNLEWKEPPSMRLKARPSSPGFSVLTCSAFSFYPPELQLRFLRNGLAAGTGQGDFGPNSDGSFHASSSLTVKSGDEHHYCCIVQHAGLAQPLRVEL
T1 sequence (P61769 21-119 limits assumed, chain 2 of 2): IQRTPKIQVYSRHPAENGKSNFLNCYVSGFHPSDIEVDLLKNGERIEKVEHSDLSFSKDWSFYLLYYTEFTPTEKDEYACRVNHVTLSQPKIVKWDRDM
Measurement Notes: phage ELISA pH 7.4;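 further: higher score means stronger binding and above about 3 to 5 exceeds background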
Give the figure by itself; no unit, no explanation.

L5 isolate with insertion SEQ ID NO: 485 (other) EPKSCDKTHTCPPCPAPELLGGPSVFLFPPKPKDTLMISRTPEVTCVVVDVSHEDPEVKFNWYVDGVEVHNAKTKPREEQYNSTYRVVSVLTVLHQDWLNGKEYKCKVSNKALPAPIEKTISKAKGQPREPQVYTLPPSRDELTKNQVSLTCLVKGFYPSDIAVEWESNGGCMPPQWMCGGGQPENNYKTTPPVLDSDGSFFLYSKLTVDKSRWQQGNVFSCSVMHEALHNHYTQKSLSLSPGK ... 2.1
L5 isolate with insertion SEQ ID NO: 481 (other) EPKSCDKTHTCPPCPAPELLGGPSVFLFPPKPKDTLMISRTPEVTCVVVDVSHEDPEVKFNWYVDGVEVHNAKTKPREEQYNSTYRVVSVLTVLHQDWLNGKEYKCKVSNKALPAPIEKTISKAKGQPREPQVYTLPPSRDELTKNQVSLTCLVKGFYPSDIAVEWESNGGCEQQFVTCGGGQPENNYKTTPPVLDSDGSFFLYSKLTVDKSRWQQGNVFSCSVMHEALHNHYTQKSLSLSPGK ... 0.8
L5 isolate with insertion SEQ ID NO: 419 (other) EPKSCDKTHTCPPCPAPELLGGPSVFLFPPKPKDTLMISRTPEVTCVVVDVSHEDPEVKFNWYVDGVEVHNAKTKPREEQYNSTYRVVSVLTVLHQDWLNGKEYKCKVSNKALPAPIEKTISKAKGQPREPQVYTLPPSRDELTKNQVSLTCLVKGFYPSDIAVEWESNGGCQNRSYWCGGGQPENNYKTTPPVLDSDGSFFLYSKLTVDKSRWQQGNVFSCSVMHEALHNHYTQKSLSLSPGK ... 0.3
L5 isolate with insertion SEQ ID NO: 409 (other) EPKSCDKTHTCPPCPAPELLGGPSVFLFPPKPKDTLMISRTPEVTCVVVDVSHEDPEVKFNWYVDGVEVHNAKTKPREEQYNSTYRVVSVLTVLHQDWLNGKEYKCKVSNKALPAPIEKTISKAKGQPREPQVYTLPPSRDELTKNQVSLTCLVKGFYPSDIAVEWESNGGCVYDVKKCGGGQPENNYKTTPPVLDSDGSFFLYSKLTVDKSRWQQGNVFSCSVMHEALHNHYTQKSLSLSPGK ... 0.7
L6A isolate with insertion SEQ ID NO: 467 (other) EPKSCDKTHTCPPCPAPELLGGPSVFLFPPKPKDTLMISRTPEVTCVVVDVSHEDPEVKFNWYVDGVEVHNAKTKPREEQYNSTYRVVSVLTVLHQDWLNGKEYKCKVSNKALPAPIEKTISKAKGQPREPQVYTLPPSRDELGGCERHFPALFCGGTKNQVSLTCLVKGFYPSDIAVEWESNGQPENNYKTTPPVLDSDGSFFLYSKLTVDKSRWQQGNVFSCSVMHEALHNHYTQKSLSLSPGK ... 0.6

Would you kindly look at the next entry?
Answer with reported ELISA score of L5 isolate with insertion SEQ ID NO: 478 (other) EPKSCDKTHTCPPCPAPELLGGPSVFLFPPKPKDTLMISRTPEVTCVVVDVSHEDPEVKFNWYVDGVEVHNAKTKPREEQYNSTYRVVSVLTVLHQDWLNGKEYKCKVSNKALPAPIEKTISKAKGQPREPQVYTLPPSRDELTKNQVSLTCLVKGFYPSDIAVEWESNGGCDLPNEMCGGGQPENNYKTTPPVLDSDGSFFLYSKLTVDKSRWQQGNVFSCSVMHEALHNHYTQKSLSLSPGK
1
